test: Pharmacokinetic evaluation in mice (IV and PO); assay type: in vivo; settings: mouse, plasma; IV 0.2 mg/kg, female Balb/c mice; read-out: Cl (plasma clearance)
Test readout: clearance (mL/min/kg)
Give bare numbers, in mL/min/kg.

Problem: // query clearance value for entry COc1ccc(CN2C3CC2CN(c2cnc(-c4cc(C5=CCOCC5)cn5ncc(C#N)c45)cn2)C3)cn1
Solution: 2.3

----------
assay: Pharmacokinetic evaluation in mice (IV and PO); format: in vivo; conditions: mouse, plasma; IV 0.2 mg/kg, female Balb/c mice
Test readout: AUC(0-t) (µM·h)
Give bare numbers, in µM·h.

Problem: Fill blank: measured AUC(0-t) of the compound COc1ccc(CN2C3CC2CN(c2cnc(-c4cc(C5=CCOCC5)cn5ncc(C#N)c45)cn2)C3)cn1 is ____.
Solution: 2.79

Where do these numbers come from? They come from patent US20230365596A1.
